These measurements were taken from PubChem BioAssay (NCI).

Below, each of the molecules is paired with its reported TGI value.
Test system: DU-145 prostate
Protocol Description: NCI tumour cell line growth inhibition, 48 h

Take a look at these entries with their results.
Challenge: Bench note: what TGI did `COC(=O)c1c(O)ccc2c1c1c(n2CCc2ccccc2)C(=O)c2ccccc2C1=O` show?
Response given: 40.7 µM

Challenge: Would you kindly share the measured TGI for CCCCC1C=Cn2c(=O)oc3c(OC(C)C)c(OC(C)C)c(O)c1c32 (stereo unspecified) ?
Response given: 34.2 µM

Challenge: Quick one: TGI of `CC(C)(NO)/C(=N\O)c1ccco1` ?
Response given: > 100 µM

Challenge: Entry `C/C(=C\CO)CC/C=C(\C)CNc1ccccc1` : reported TGI = ?
Response given: > 100 µM

Challenge: Record request: TGI value, item `O=C(c1ccccc1)c1ccc2nc(-c3c(Cl)c(Cl)c(Cl)c(Cl)c3C(=O)N/N=C\C=C\c3ccccc3)[nH]c2c1`
Response given: > 100 µM

Challenge: What value of TGI has been recorded for this entry: C/C=C1/C[C@@H](C)[C@@](C)(O)C(=O)OCC2=CC[N+]3([O-])CC[C@@H](OC1=O)[C@@H]23 (stereo partly specified)
Response given: > 100 µM

Challenge: Name the reported TGI value associated with the molecule `C=CC(=O)N1CC2(CCC(n3nc(-c4ccc(Oc5ccccc5)cc4)c4c(N)ncnc43)CC2)C1`
Response given: 2.21 µM

Challenge: # input molecule: CC(=O)NCCC1CN(C(=O)/C=C\I)c2ccccc21 (stereo unspecified) ; wanted: its TGI
Response given: 33.1 µM

Challenge: TGI lookup needed for `COC(=O)c1cc(CC2Cc3cc4c(cc3C2)CCC4)cc2c1CCC2` , thanks.
Response given: > 100 µM

Challenge: GET /values?readout=TGI&item= CCOP(=O)(OCC)OC1c2[nH]ccc2-c2cc(C(=O)OC)[nH]c2C1OC (stereo unspecified)
Response given: > 100 µM

Next:
Challenge: So what's the measured TGI for this one? `CC#CC#Cc1cccc(=O)o1`
Response given: 29.2 µM

Challenge: Quick one: TGI for COc1ccc(C2c3c(n(C)c(=O)n(C)c3=O)OC(N(C)C)(N(C)C)C2(F)F)cc1 (stereo unspecified) ?
Response given: > 100 µM

Challenge: Suppose we examine the molecule `CCCCCc1cccc(=O)o1` ; what TGI value has been reported?
Response given: > 100 µM

Challenge: Form field: reported TGI of O=C(OC1C=C=CS(=O)(=O)CC#C/C=C\1)c1cnc2ccccc2n1 (stereo unspecified)
Response given: > 100 µM

Challenge: So what does the record say about TGI for COc1cc2c(cc1OC)C1c3ccccc3CCCN1CC2 (stereo unspecified) ?
Response given: > 100 µM

----------
Tested on: UACC-62 melanoma
// one of Yes for active, No for inactive, no free text

Solved entries (count: 8):
Challenge: Outcome logged for `CCCOC(=O)c1ccc2c(c1)[N+](=O)C(C(=O)c1ccccc1)=C(C(F)(F)F)[N+]2=O` in this assay:
Response given: No

Challenge: What was the test verdict on `COc1ccc(/C=C/C(=O)c2ccc(NC(=O)CSc3nnc(-c4ccc(OC)c(OC)c4)n3-c3ccccc3)cc2)cc1` ?
Response given: No

Challenge: Record lookup: outcome of this test for `CCC[CH2][Sn]1([CH2]CCC)[O]CC(c2ccccn2)C[O]1` ?
Response given: No

Challenge: Look up the recorded call for `Cc1ccc(-c2c3c(nn2-c2ccc(S(=O)(=O)NC(=O)Nc4ccccc4)cc2)-c2ccccc2C3)cc1` in this test.
Response given: No

Challenge: Hi team, can someone confirm the assay call for `C=C(CN1CCc2ccccc2C1)c1ccc(CCC(=O)Nc2ccccc2N)cc1` ?
Response given: No

Challenge: Dear all, I need the recorded test outcome for `COc1ccc(/C(COc2ccc3c(c2)oc(=O)c2cc(OC)ccc23)=N/O)cc1` , thank you.
Response given: No

Challenge: Field: outcome | Entry: `CCCc1n(Cc2ccc3ccccc3c2)c2ccccc2[n+]1Cc1ccc2ccccc2c1`
Response given: Yes

Challenge: Outcome? `COc1cc(C(=O)/C=C/c2c(C)n([O-])c3ccc(C(F)(F)F)cc3[n+]2=O)cc(OC)c1OC`
Response given: No

Note: attention shifts to another entry.
Challenge: What did this assay record as the result for `COc1cccc2c(Nc3ccc(C(=O)O)cc3)cc(-c3ccccc3)nc12` ?
Response given: No

----------
Tested on: NCI-H226 lung
Protocol Description: NCI tumour cell line growth inhibition, 48 h
# TGI values compiled below
Report only the number, with the unit µM understood.

Would you please look over these solved cases?
Challenge: Which TGI value is on record for `COc1ccc(-n2sc3ncc(C)cc3c2=O)cc1` ?
Response given: 84.6

Challenge: TGI lookup needed for `O/N=C(\C(=N/O)Nc1ccc(-c2ccc(NC(=N/O)/C(=N\O)c3ccccc3)cc2)cc1)c1ccccc1` , thanks.
Response given: 69.2

Challenge: Report TGI for `COc1cc(/C=C2\N=C(c3ccccc3)N(c3cc4cc(Sc5ccccc5)ccc4[nH]3)C2=O)cc(OC)c1OC` please.
Response given: 28.9

Challenge: Using the record for `O=C(/C=C/c1cccc(O)c1)c1cccc(-n2cc(-c3ccc(Cl)cc3)[nH]c2=O)c1` , report its TGI.
Response given: 5.5

// next item, TGI requested
Challenge: Dear colleague, I am looking for the recorded TGI of the following compound: `COC(=O)c1c(O)c2c(c3c1OC(C)(C)CC3)OC(C)(C)CC2`
Response given: 35.9

----------
A collection of compounds and their measured TGI
Test system: UACC-257 melanoma
Protocol Description: NCI tumour cell line growth inhibition, 48 h

Challenge: For `O=C(/C=C/c1cccc2ccccc12)c1ccccc1` , what is its reported TGI?
Response given: 29.7 µM

Could you now consider this next compound?
Challenge: Find the recorded TGI belonging to COC(=O)C1=C(OC(=O)/C(=C/c2ccccc2)c2ccccc2)C(C(=O)OC)[C@@]2(O)[C@@H](C(=O)OC)[C@H](C)C[C@@H]1[C@@H]2C(=O)OC (some centres undefined) and report it.
Response given: > 100 µM

----------
The following compounds are listed with their measured TGI values.
Test system: HCT-15 colon
Protocol Description: NCI tumour cell line growth inhibition, 48 h

A selection of reference data follows.
Challenge: Entry under review: CC1c2ccccc2Cn2cc3c(c21)C(=O)c1cccc(OP(=O)(O)OCc2ccccc2)c1C3=O (stereo not given) . Reported TGI?
Response given: > 100 µM

Challenge: Look up TGI: `COc1ccc2c3ccc4c(c3n(C)c2c1)C(=O)C=CC4=O`
Response given: > 100 µM

***
Challenge: // query TGI value for entry Brc1ccc2c(C3CN[C@@H](c4c[nH]c5cc(Br)ccc45)CN3)c[nH]c2c1 (stereo not given in full)
Response given: 13.6 µM

Challenge: Looking for the measured TGI of CCOP(=O)(OCC)OC1c2[nH]ccc2-c2cc(C(=O)OC)[nH]c2C1OC (stereo not given) , can you help?
Response given: > 100 µM

Challenge: Would you kindly share the measured TGI for `CCSc1nc2[nH]c(=S)[nH]c(=S)c2c(-c2ccc(OC)c(OC)c2)c1C#N` ?
Response given: > 50 µM

----------
Test system: HOP-18 NSCLC
Protocol Description: NCI tumour cell line growth inhibition, 48 h
Observation Type: TGI

Solved entries (count: 2):
Challenge: Recorded TGI of O=C1NC(c2cccc3ccccc23)Nc2ccc(O)cc21 (stereo not drawn) , please.
Response given: 131 µM

Challenge: Look up TGI: N#CC(C#N)=c1ccc(=C2N3CCCC3CN2C23CC4CC(CC(C4)C2)C3)cc1 (stereo not drawn)
Response given: > 100 µM

Here's the next entry for you.
Challenge: What value of TGI has been recorded for this entry: `Nc1ccc(N)c2c1C(=O)c1ccccc1C2=O`
Response given: > 100 µM

----------
System: SNB-75 CNS
Protocol Description: NCI tumour cell line growth inhibition, 48 h
Observation Type: TGI

Observe how each entry below is paired with its result.
Challenge: Fill in: TGI of COc1ccc(OC)c2c(C(=O)O)c(C(C)c3ccccc3)ccc12 (stereo unspecified) is ___
Response given: > 100 µM

Challenge: For `O=C1Cc2c([nH]c3ccc(Cl)cc23)-c2ccccc2N1` , what is its reported TGI?
Response given: > 100 µM

Challenge: Query: TGI; subject: `Cc1cc(CN2CCCCC2)c(O)c(CN2CCCCC2)c1`
Response given: > 100 µM

Challenge: // lookup TGI for `CCCOC(=O)c1ccc2c(c1)[N+](=O)C(C(=O)c1ccccc1)=C(C(F)(F)F)[N+]2=O`
Response given: 3 µM

Challenge: Report TGI for `CCOC(=O)C1=NC(c2ccccc2)(c2ccccc2)OC1=C(Cl)Cl` please.
Response given: > 100 µM

Then there is this compound:
Challenge: TGI for `Cn1c(N)c(Cc2ccc(Cl)cc2)c(=O)[nH]c1=O` ?
Response given: > 100 µM
